test system: Pnc1 WT or mutant; experiment: Steady-state kinetic parameters of Pnc1 mutants, enzyme-coupled assay; assay type: biochemical, S. cerevisiae; details: substrate nicotinamide, pH 7.5

molecule	kcat [s⁻¹]
D8E (protein, UniProt P53184 1-216, looked up, variant D8E) Nicotinamidase: MKTLIVVEMQNDFISPLGSLTVPKGEELINPISDLMQDADRDWHRIVVTRDWHPSRHISFAKNHKDKEPYSTYTYHSPRPGDDSTQEGILWPVHCVKNTWGSQLVDQIMDQVVTKHIKIVDKGFLTDREYYSAFHDIWNFHKTDMNKYLEKHHTDEVYIVGVALEYCVKATAISAAELGYKTTVLLDYTRPISDDPEVINKVKEELKAHNINVVDK	0.0070
H94A (protein, UniProt P53184 1-216, looked up, variant H94A) Nicotinamidase: MKTLIVVDMQNDFISPLGSLTVPKGEELINPISDLMQDADRDWHRIVVTRDWHPSRHISFAKNHKDKEPYSTYTYHSPRPGDDSTQEGILWPVACVKNTWGSQLVDQIMDQVVTKHIKIVDKGFLTDREYYSAFHDIWNFHKTDMNKYLEKHHTDEVYIVGVALEYCVKATAISAAELGYKTTVLLDYTRPISDDPEVINKVKEELKAHNINVVDK	0.020
D51A (protein, UniProt P53184 1-216, looked up, variant D51A) Nicotinamidase: MKTLIVVDMQNDFISPLGSLTVPKGEELINPISDLMQDADRDWHRIVVTRAWHPSRHISFAKNHKDKEPYSTYTYHSPRPGDDSTQEGILWPVHCVKNTWGSQLVDQIMDQVVTKHIKIVDKGFLTDREYYSAFHDIWNFHKTDMNKYLEKHHTDEVYIVGVALEYCVKATAISAAELGYKTTVLLDYTRPISDDPEVINKVKEELKAHNINVVDK	0.020
H53A (protein, UniProt P53184 1-216, looked up, variant H53A) Nicotinamidase: MKTLIVVDMQNDFISPLGSLTVPKGEELINPISDLMQDADRDWHRIVVTRDWAPSRHISFAKNHKDKEPYSTYTYHSPRPGDDSTQEGILWPVHCVKNTWGSQLVDQIMDQVVTKHIKIVDKGFLTDREYYSAFHDIWNFHKTDMNKYLEKHHTDEVYIVGVALEYCVKATAISAAELGYKTTVLLDYTRPISDDPEVINKVKEELKAHNINVVDK	0.014
K122R (protein, UniProt P53184 1-216, looked up, variant K122R) Nicotinamidase: MKTLIVVDMQNDFISPLGSLTVPKGEELINPISDLMQDADRDWHRIVVTRDWHPSRHISFAKNHKDKEPYSTYTYHSPRPGDDSTQEGILWPVHCVKNTWGSQLVDQIMDQVVTKHIKIVDRGFLTDREYYSAFHDIWNFHKTDMNKYLEKHHTDEVYIVGVALEYCVKATAISAAELGYKTTVLLDYTRPISDDPEVINKVKEELKAHNINVVDK	0.0009
